system: SNB-19 CNS; experiment: NCI tumour cell line growth inhibition, 48 h; in the data active = GI50 below about 0.43 µM; inactive = the rest
Classes used: active, inactive

[[record]]
compound = "CCC[CH2][Sn]1([CH2]CCC)[O]C(=O)C[S]1"
test_system = "SNB-19 CNS"
cat = "inactive"

[[record]]
compound = "COc1ccc(/C=C/c2nc(N3CCOCC3)c3cc(F)c(F)cc3n2)cc1OC"
test_system = "SNB-19 CNS"
cat = "inactive"

[[record]]
compound = "CC(C)(C)c1ccc(C(=O)N/N=C/c2ccc(O)cc2O)cc1"
test_system = "SNB-19 CNS"
cat = "inactive"

[[record]]
compound = "c1ccc(Cn2cc3c(c2)-c2oncc2CC3)cc1"
test_system = "SNB-19 CNS"
cat = "inactive"

[[record]]
compound = "CC(C)[C@@H](C(=O)O[C@@H]1/C=C/C(=O)O[C@@H](C)CCC/C=C/[C@@H]2C[C@H](O)C[C@H]21)[N+](C)(C)C"
test_system = "SNB-19 CNS"
cat = "inactive"

[[record]]
compound = "O=S(=O)(NC(=S)Nc1ccccc1)c1ccc(N2N=C3c4ccccc4CC3C2c2ccc(Cl)cc2)cc1 (stereo unspecified)"
test_system = "SNB-19 CNS"
cat = "inactive"

[[record]]
compound = "Cn1cc(-c2csc(-c3cn(CCN4CCOCC4)c4ccc(F)cc34)n2)c2cccnc21"
test_system = "SNB-19 CNS"
cat = "inactive"

[[record]]
compound = "COc1cc(/C=C/C(=O)c2c(C)n([O-])c3cc(C)c(C)cc3[n+]2=O)cc(OC)c1OC"
test_system = "SNB-19 CNS"
cat = "inactive"

[[record]]
compound = "Cc1cc[c-]cc1.Fc1c[c-]c(-c2ccccn2)c(F)c1.N#CCC[PH+](CCC#N)c1ccccc1.[Pt+2]"
test_system = "SNB-19 CNS"
cat = "inactive"

[[record]]
compound = "c1ccc(-c2n(Cc3ccc4ccccc4n3)c3ccccc3[n+]2Cc2ccc3ccccc3n2)cc1"
test_system = "SNB-19 CNS"
cat = "active"

[[record]]
compound = "COc1ccc(C(=O)Nc2ncc(Cc3ccc(F)cc3)s2)cc1"
test_system = "SNB-19 CNS"
cat = "active"

[[record]]
compound = "Cc1cc(N(CCCNc2ccnc3cc(Cl)ccc23)Cc2cccs2)nc(Cl)n1"
test_system = "SNB-19 CNS"
cat = "inactive"

[[record]]
compound = "O=C(c1ccc(O)cc1)c1ccc(C(=O)c2ccc(O)cc2)cc1"
test_system = "SNB-19 CNS"
cat = "inactive"

[[record]]
compound = "COc1ccc(-c2nnc3n(C)c(=O)c4ccccc4n23)cc1O"
test_system = "SNB-19 CNS"
cat = "inactive"

[[record]]
compound = "Cc1sc2nc(-c3ccccn3)c(/C=N/N=C(N)N)n2c1C"
test_system = "SNB-19 CNS"
cat = "inactive"

[[record]]
compound = "COc1ccc2nc(-c3ccccc3)cc(Nc3ccc(/C(C)=N/O)cc3)c2c1"
test_system = "SNB-19 CNS"
cat = "inactive"

[[record]]
compound = "CC(=O)OC1CCC2(C)C(CCC3C2CCC2(C)C(C4=CC(=O)OC4)CCC32)C1 (stereo unspecified)"
test_system = "SNB-19 CNS"
cat = "inactive"

[[record]]
compound = "CCN(CC)c1ccc(/C=C/C(=O)c2cccc(NS(C)(=O)=O)c2)cc1"
test_system = "SNB-19 CNS"
cat = "inactive"

[[record]]
compound = "O=C(O)c1cn(C2CC2)c2cc(N3CCN(S(=O)(=O)c4ccc(Cl)c(Cl)c4)CC3)c(F)cc2c1=O"
test_system = "SNB-19 CNS"
cat = "inactive"

[[record]]
compound = "Oc1c(I)cc(I)cc1CNCCCN(Cc1ccccn1)Cc1ccccn1"
test_system = "SNB-19 CNS"
cat = "inactive"

[[record]]
compound = "COc1cc2c(cc1OCCCCCCNC(=O)c1cc3ccccc3[nH]1)N=CC1CCCN1C2=O (stereo unspecified)"
test_system = "SNB-19 CNS"
cat = "inactive"


----------
tested on: TK-10 renal; test: NCI tumour cell line growth inhibition, 48 h
Each entry below lists one item and its recorded TGI value.
Measure: TGI

[[record]]
compound = "O=C1CCC2=C(CCC2)N1CCc1ccc2c(c1)OCO2"
measure = "TGI"
experimental_value = "> 100 µM"

[[record]]
compound = "COc1ccc(CNc2nc3ccccc3nc2-c2cccs2)cc1OC"
measure = "TGI"
experimental_value = "> 100 µM"

[[record]]
compound = "Cn1cc(-c2csc(-c3cn(CCN4CCOCC4)c4ccc(F)cc34)n2)c2cccnc21"
measure = "TGI"
experimental_value = "18.8 µM"

[[record]]
compound = "COc1cc(C2[C@H]3C(=O)N(c4ccc(Cc5ccc(N6C(=O)[C@@H]7ON(c8ccccc8)C(c8cc(OC)c(OC)c(OC)c8)[C@@H]7C6=O)cc5)cc4)C(=O)[C@H]3ON2c2ccccc2)cc(OC)c1OC (stereo partly drawn)"
measure = "TGI"
experimental_value = "> 100 µM"

[[record]]
compound = "C[C@H](CC[C@@H](O)C(C)(C)O)[C@H]1CC[C@@]2(C)[C@@H]3CC=C4[C@@H](CC[C@H](OC5OC(CO)C(O)C(O)C5O)C4(C)C)[C@]3(C)C(=O)C[C@]12C (stereo partly drawn)"
measure = "TGI"
experimental_value = "> 100 µM"

[[record]]
compound = "O=C1Cc2ccccc2N1/N=C\\c1ccc(O)cc1"
measure = "TGI"
experimental_value = "> 100 µM"

[[record]]
compound = "N=C1N=C(N)c2cc3c(cc21)SCCSCCCSCCS3"
measure = "TGI"
experimental_value = "28.6 µM"

[[record]]
compound = "O=C1c2c(c3c4ccccc4n4c3c3c2c2ccccc2n3C/C=C\\C4)C(=O)N1Cc1ccccc1"
measure = "TGI"
experimental_value = "> 100 µM"


----------
Measured TGI values are reported for all entries that follow.
system: HS 578T breast; test: NCI tumour cell line growth inhibition, 48 h
Measure: TGI (µM)

[[record]]
molecule = "CC1=CC(=O)c2cccc(NC3=NCCO3)c21"
test_system = "HS 578T breast"
unit_name = "µM"
modifier_sign = ">"
experimental_value = 100

[[record]]
molecule = "Cc1nnc(N)nc1/C=C\\c1cccs1"
test_system = "HS 578T breast"
unit_name = "µM"
modifier_sign = ">"
experimental_value = 100

[[record]]
molecule = "Cc1ccc([N+](=O)[O-])cc1S(=O)(=O)Nc1ccc(C2=NN(c3ccc([N+](=O)[O-])cc3[N+](=O)[O-])C(c3ccccc3O)C2)cc1 (stereo not drawn)"
test_system = "HS 578T breast"
unit_name = "µM"
modifier_sign = ">"
experimental_value = 100

[[record]]
molecule = "COc1ccc(-c2nnc3n(C)c(=O)c4ccccc4n23)cc1O"
test_system = "HS 578T breast"
unit_name = "µM"
modifier_sign = "="
experimental_value = 35.9

[[record]]
molecule = "C=C1C(=O)[C@]23[C@H](O)[C@H]1CC[C@H]2[C@@]12CO[C@@]3(O)C[C@@H]1C(C)(C)CC[C@@H]2O"
test_system = "HS 578T breast"
unit_name = "µM"
modifier_sign = "="
experimental_value = 22.2

[[record]]
molecule = "COc1cc2c(cc1OCCCCCCNC(=O)c1cc3ccccc3[nH]1)N=CC1CCCN1C2=O (stereo not drawn)"
test_system = "HS 578T breast"
unit_name = "µM"
modifier_sign = ">"
experimental_value = 100

[[record]]
molecule = "CCC(=N\\NC(N)=S)/C(C)=N/O"
test_system = "HS 578T breast"
unit_name = "µM"
modifier_sign = ">"
experimental_value = 100

[[record]]
molecule = "COc1cc(C(=O)/C=C/c2c(-c3ccc(F)cc3)nc3sccn23)cc(OC)c1OC"
test_system = "HS 578T breast"
unit_name = "µM"
modifier_sign = "="
experimental_value = 6.44

[[record]]
molecule = "CC1CCC2c3c([nH]c4ccccc34)C3C(=O)N(C4CCCCC4)C(=O)C3C2C1 (stereo not drawn)"
test_system = "HS 578T breast"
unit_name = "µM"
modifier_sign = "="
experimental_value = 57.4

[[record]]
molecule = "O=c1[nH]c(=O)n(C2CC(O)C(CO)O2)cc1NN=NCc1ccccc1 (stereo not drawn)"
test_system = "HS 578T breast"
unit_name = "µM"
modifier_sign = ">"
experimental_value = 100

[[record]]
molecule = "COc1ccc(C(=O)Nc2ncc(Cc3ccc(F)cc3)s2)cc1"
test_system = "HS 578T breast"
unit_name = "µM"
modifier_sign = "="
experimental_value = 34.6

[[record]]
molecule = "C[C@H](CC[C@@H](O)C(C)(C)O)[C@H]1CC[C@@]2(C)[C@@H]3CC=C4[C@@H](CC[C@H](OC5OC(CO)C(O)C(O)C5O)C4(C)C)[C@]3(C)C(=O)C[C@]12C (stereo partly drawn)"
test_system = "HS 578T breast"
unit_name = "µM"
modifier_sign = ">"
experimental_value = 100

[[record]]
molecule = "BrP(NC1CCCCCC1)(c1ccccc1)(c1ccccc1)c1ccccc1"
test_system = "HS 578T breast"
unit_name = "µM"
modifier_sign = "="
experimental_value = 12.4

[[record]]
molecule = "CN(N)C(=O)NCCCl"
test_system = "HS 578T breast"
unit_name = "µM"
modifier_sign = ">"
experimental_value = 100

[[record]]
molecule = "O=C(c1ccc(Cl)cc1)N1N=C(c2ccc(Cl)cc2)CC1(O)c1cc(F)c(Cl)cc1Cl (stereo not drawn)"
test_system = "HS 578T breast"
unit_name = "µM"
modifier_sign = ">"
experimental_value = 100

[[record]]
molecule = "CCN(CC)c1ccc(/C=C/C(=O)c2cccc(NS(C)(=O)=O)c2)cc1"
test_system = "HS 578T breast"
unit_name = "µM"
modifier_sign = ">"
experimental_value = 100

[[record]]
molecule = "COC(=O)c1[nH]nc(-c2ccccc2)c1N1CCCCC1"
test_system = "HS 578T breast"
unit_name = "µM"
modifier_sign = "="
experimental_value = 64.7

[[record]]
molecule = "O=C1c2ccccc2C(=O)N1C(=S)c1ccccc1"
test_system = "HS 578T breast"
unit_name = "µM"
modifier_sign = ">"
experimental_value = 100

[[record]]
molecule = "CCCCCC(/C=C/[C@@H]1CC(=O)C[C@H]1O[Si](C)(C)C(C)(C)C)OCOCCOC (stereo partly drawn)"
test_system = "HS 578T breast"
unit_name = "µM"
modifier_sign = "="
experimental_value = 8.04

[[record]]
molecule = "CN(C)CCCNC(=O)c1cc2c3ccccc3[nH]c2c2ncccc12"
test_system = "HS 578T breast"
unit_name = "µM"
modifier_sign = "="
experimental_value = 38.3

[[record]]
molecule = "O=C(NCCO)c1c(O)c2ccccc2[nH]c1=O"
test_system = "HS 578T breast"
unit_name = "µM"
modifier_sign = ">"
experimental_value = 100

[[record]]
molecule = "Cc1sc2nc(-c3ccccn3)c(/C=N/N=C(N)N)n2c1C"
test_system = "HS 578T breast"
unit_name = "µM"
modifier_sign = "="
experimental_value = 27.7

[[record]]
molecule = "COC(=O)C1(NC(=O)C(N)CC(=O)O)C(C)C1C (stereo not drawn)"
test_system = "HS 578T breast"
unit_name = "µM"
modifier_sign = ">"
experimental_value = 100

